biological target: T1, human CD3e (T-cell surface glycoprotein CD3 epsilon chain) (human, UniProt P07766 23-207); assay: flow cytometry, human PBMC, antibody 0.1 µg/mL, anti-human IgG Fc-Alexa Fluor647 (1:500), anti-hTcRβ-PerCP (1:30)
T1 construct: Target of the anti-hCD3e antibodies on human PBMC, Jurkat cells and cells expressing human CD3e; on T cells it is part of the CD3/TCR complex; also called hCD3e; CD3e on human PBMC
Reported metric: upper left quadrant, percent of cells AF647+ / hTcRβ-PerCP- (%)
Just the number in %, nothing appended.

Incoming: State the recorded upper left quadrant, percent of cells AF647+ / hTcRβ-PerCP- for this entry: 1B1-H4K3-IgG1-LALA (antibody, V domains shown, Humanized; human IgG1 with LALA mutations; also called H4K3 (humanized 1B1)) VH: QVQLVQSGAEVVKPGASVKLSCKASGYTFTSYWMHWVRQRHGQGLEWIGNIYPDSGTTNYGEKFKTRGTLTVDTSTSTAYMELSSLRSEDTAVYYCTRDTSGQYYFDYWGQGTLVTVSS VL: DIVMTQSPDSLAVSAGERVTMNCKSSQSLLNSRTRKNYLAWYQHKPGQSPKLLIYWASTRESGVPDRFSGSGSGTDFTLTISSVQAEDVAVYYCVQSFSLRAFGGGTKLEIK
Outgoing: 11.9

Source: patent US20210269525A1
